testSystem: FGF-1 (flg) receptor tyrosine kinase (Homo sapiens)
Construct: amplify a fragment of DNA that codes for the intracellular tyrosine kinase domain
Sequence (P11362 478-767 limits assumed): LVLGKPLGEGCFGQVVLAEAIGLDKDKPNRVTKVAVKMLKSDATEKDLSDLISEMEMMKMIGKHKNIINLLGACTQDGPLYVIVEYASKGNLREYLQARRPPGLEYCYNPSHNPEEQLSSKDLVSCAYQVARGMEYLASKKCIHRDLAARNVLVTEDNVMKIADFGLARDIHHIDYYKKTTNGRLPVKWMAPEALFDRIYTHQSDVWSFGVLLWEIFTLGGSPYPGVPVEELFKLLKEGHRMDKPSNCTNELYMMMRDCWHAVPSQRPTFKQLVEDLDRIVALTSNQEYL
test: FGF receptor tyrosine kinase assay
runConditions: intracellular tyrosine kinase domain, SF9 lysate
pIC50: −log10 of the molar value.
parameterMeasured: pIC50

1) CN1CCN(c2ccc(Nc3ncc4cnc(=O)n(C5CC6CCC5C6)c4n3)cc2)CC1 (centres unmarked) | 6.33
2) CC(C)n1c(=O)ncc2cnc(Nc3ccc(N4CCC(CCCN5CCOCC5)CC4)cc3)nc21 | 5.31

* * *

Quick reference for melting point among some compounds
parameterMeasured: melting point

1. CCNc1nc(SC)ncc1C=Nc1cc(OC)cc(OC)c1Cl | 196.5 to 198.5 °C
2. CCN(CC)CCOc1ccc(Nc2ncc3c(n2)N(C2CCCC2)C(=O)NC3)cc1C | 175 to 177 °C
3. COc1ccc(Cn2c(=O)c3cnc(-n4ccnc4)nc3n(C(C)C)c2=O)cc1 | 148 to 150 °C (dec.)
4. CCN1C(=O)N(c2cc(OC)cc(OC)c2)Cc2cnc(SC)nc21 (hydrate or solvate) [Example 50a] | 134 to 136 °C
